Kindly supply the reported Ki values for the records listed here.
- Assay protocol: Displacement of [3H]diazepam from GABAA receptor in rat brain cortical membranes
- Type: cell membranes

| Item smiles | Quantity kind | Result value |
| --- | --- | --- |
| O=C1/C(=C/c2cccc(OCc3ccc(Cl)cc3)c2)N=C2SCCCCN12 | Ki | > 10 µM |

# return Ki for each item in the list
1. O=C1/C(=C/c2cccc(F)c2F)N=C2SCCCN12
2. O=C1/C(=C/c2cccc(OCc3ccc(Cl)cc3Cl)c2)N=C2SCCCCN12
3. O=C1/C(=C/c2ccc(F)cc2F)N=C2SCCCN12

Out:
> 10 µM
> 10 µM
> 10 µM

Parameter requested: Ki. Apply to each item below.
1. O=C1/C(=C/c2cccc(OCc3ccc(Cl)cc3Cl)c2)N=C2SCCCN12
2. O=C(Oc1cccc(/C=C2\N=C3SCCCN3C2=O)c1)c1ccccc1

Out:
1. > 10 µM
2. > 10 µM

Hi there! I need Ki for each item below, if you can.
1. O=C1/C(=C/c2cccc(OCc3ccc(Cl)cc3)c2)N=C2SCCCN12
2. O=C1/C(=C/c2ccccc2Cl)N=C2SCCCN12
3. O=C1/C(=C/c2cccc(Cl)c2)N=C2SCCCN12

Out:
1: > 10 µM; 2: 4.15 µM; 3: 10 µM

###

- Experimental system: G-protein coupled receptor 55 (Homo sapiens, UniProt Q9Y2T6)
- Sequence (Q9Y2T6 whole entry, the tested form may be a part): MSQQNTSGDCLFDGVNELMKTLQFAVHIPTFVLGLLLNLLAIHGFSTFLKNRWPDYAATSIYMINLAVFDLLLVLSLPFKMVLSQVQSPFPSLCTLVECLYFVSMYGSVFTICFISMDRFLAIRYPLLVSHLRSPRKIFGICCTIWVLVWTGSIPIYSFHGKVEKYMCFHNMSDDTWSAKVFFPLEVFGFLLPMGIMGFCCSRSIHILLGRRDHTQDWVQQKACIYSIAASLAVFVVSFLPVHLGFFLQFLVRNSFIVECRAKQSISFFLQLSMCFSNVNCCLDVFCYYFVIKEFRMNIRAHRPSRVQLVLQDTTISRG
- Assay protocol: Agonist activity at human GPR55 expressed in CHO cells assessed as induction of LPI-induced beta-arrestin recruitment by beta-galactosidase enzyme fragment complementation method
- Format: cell-based
Quantity kind: pEC50
One number for each entry, as −log10 of the molar value.

Would you please look over these solved cases?
| Item smiles | Experimental system | pEC50 |
| --- | --- | --- |
| CCCCCc1cc(O)c2c(c1)OC(C)(C)[C@@H]1CCC(C)=C[C@@H]21 | G-protein coupled receptor 55 (Homo sapiens, UniProt Q9Y2T6) | 4.85 |
| CCCCC/C=C\C/C=C\C/C=C\C/C=C\CCCC(=O)O[C@H](CO)COP(=O)(O)O[C@@H]1[C@@H](O)[C@H](O)[C@@H](O)[C@H](O)[C@@H]1O | G-protein coupled receptor 55 (Homo sapiens, UniProt Q9Y2T6) | 6.00 |
| O=C1/C(=C/c2cccc(OCc3ccc(Cl)cc3)c2)N=C2SCCCCN12 | G-protein coupled receptor 55 (Homo sapiens, UniProt Q9Y2T6) | 4.97 |

Let us move to another entry and its pEC50.
In: Enter recorded pEC50 with G-protein coupled receptor 55 (Homo sapiens, UniProt Q9Y2T6) for CCCCCCC(C)(C)c1ccc([C@@H]2C[C@H](O)CC[C@H]2CCCO)c(O)c1 here.
Out: 5.79

###

- Experimental system: N-arachidonyl glycine receptor (Homo sapiens) (UniProt Q14330)
- Sequence (Q14330 whole entry, the tested form may be a part): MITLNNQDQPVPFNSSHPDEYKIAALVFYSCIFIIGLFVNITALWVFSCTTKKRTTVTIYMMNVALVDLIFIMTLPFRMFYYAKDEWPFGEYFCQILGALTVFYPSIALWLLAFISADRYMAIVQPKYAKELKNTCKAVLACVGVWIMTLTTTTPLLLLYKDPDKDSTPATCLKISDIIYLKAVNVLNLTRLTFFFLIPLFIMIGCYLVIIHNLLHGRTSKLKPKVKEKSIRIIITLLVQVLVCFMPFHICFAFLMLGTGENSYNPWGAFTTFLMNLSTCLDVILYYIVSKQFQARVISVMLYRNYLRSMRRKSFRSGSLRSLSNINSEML
- Assay protocol: Antagonist activity against human GPR18 expressed in CHO cells assessed as reduction in delta9-THC-induced beta-arrestin recruitment at 10 uM by beta-galactosidase enzyme fragment complementation method
- Type: cell-based
Binary call on inhibition: true (1) from 5% upward, false (0) beneath that.

Solved cases (8 shown):
| Compound | Experimental system | Answer label |
| --- | --- | --- |
| COc1ccccc1/C=C1\N=C2SCCCN2C1=O | N-arachidonyl glycine receptor (Homo sapiens) (UniProt Q14330) | false (0) |
| O=C1N=C2SCCCN2C1(c1ccccc1)c1ccccc1 | N-arachidonyl glycine receptor (Homo sapiens) (UniProt Q14330) | false (0) |
| O=C1/C(=C/c2ccc([N+](=O)[O-])cc2)N=C2SCCCN12 | N-arachidonyl glycine receptor (Homo sapiens) (UniProt Q14330) | true (1) |
| COc1cccc(/C=C2\N=C3SCCCN3C2=O)c1OC | N-arachidonyl glycine receptor (Homo sapiens) (UniProt Q14330) | true (1) |
| O=C1/C(=C/c2ccc(Cl)cc2Cl)N=C2SCCCN12 | N-arachidonyl glycine receptor (Homo sapiens) (UniProt Q14330) | true (1) |
| CCCCC/C=C\C/C=C\C/C=C\C/C=C\CCCC(=O)O[C@H](CO)COP(=O)(O)O[C@@H]1[C@@H](O)[C@H](O)[C@@H](O)[C@H](O)[C@@H]1O | N-arachidonyl glycine receptor (Homo sapiens) (UniProt Q14330) | true (1) |
| O=C1/C(=C/c2cccc(Oc3ccccc3)c2)N=C2SCCCN12 | N-arachidonyl glycine receptor (Homo sapiens) (UniProt Q14330) | true (1) |
| C/C(=C1/N=C2SCCCCN2C1=O)c1ccccc1 | N-arachidonyl glycine receptor (Homo sapiens) (UniProt Q14330) | false (0) |

In: Hi team, for O=C1/C(=C/c2cccc(OCc3ccccc3)c2)N=C2SCCCCN12 , is the recorded inhibition at or above 5%?
Out: true (1)

In: Does inhibition meet or surpass 5% for O=C1/C(=C/c2ccc(-c3ccccc3)cc2)N=C2SCCCCN12 ?
Out: true (1)

In: Tell me whether inhibition is at least 5% here: CC(C)c1ccc(/C=C2\N=C3SCCCN3C2=O)cc1
Out: false (0)
